- target-system: PRKD1 (human)
- measurement-description: KINOMEscan competition binding
- reported-conditions: compound 1.0 µM
Some molecules, each annotated with its measured kinase still bound, per cent of control.
// unit must come after the numeric part

Use these answered entries as a reference point.
[[record]]
chemical_string = "CN(C)C/C=C/C(=O)Nc1cccc(C(=O)Nc2ccc(Nc3nccc(-c4c(-c5ccccc5)nn5ccccc45)n3)cc2)c1"
result = "20%"

[[record]]
chemical_string = "Cc1cc(NC(=O)c2cccc(NC(=O)/C=C/CN(C)C)c2)ccc1Nc1nccc(-c2cccnc2)n1"
result = "100%"

[[record]]
chemical_string = "CN(C)C/C=C/C(=O)Nc1cccc(C(=O)Nc2ccc(Nc3nccc(/C(C#N)=C4\\Nc5ccccc5S4)n3)cc2)c1"
result = "100%"


Here is another molecule to look at.
Q: Field request: kinase still bound, per cent of control | item: CN(C)C/C=C/C(=O)Nc1cccc(C(=O)Nc2ccc(Nc3nccc(-c4cccnc4)n3)cc2)c1
Result: 100%

----------
Some compounds, each annotated with its measured kinase still bound, per cent of control.
- target-system: GRK7 (human) (UniProt Q8WTQ7)
- Sequence (Q8WTQ7 whole entry, looked up): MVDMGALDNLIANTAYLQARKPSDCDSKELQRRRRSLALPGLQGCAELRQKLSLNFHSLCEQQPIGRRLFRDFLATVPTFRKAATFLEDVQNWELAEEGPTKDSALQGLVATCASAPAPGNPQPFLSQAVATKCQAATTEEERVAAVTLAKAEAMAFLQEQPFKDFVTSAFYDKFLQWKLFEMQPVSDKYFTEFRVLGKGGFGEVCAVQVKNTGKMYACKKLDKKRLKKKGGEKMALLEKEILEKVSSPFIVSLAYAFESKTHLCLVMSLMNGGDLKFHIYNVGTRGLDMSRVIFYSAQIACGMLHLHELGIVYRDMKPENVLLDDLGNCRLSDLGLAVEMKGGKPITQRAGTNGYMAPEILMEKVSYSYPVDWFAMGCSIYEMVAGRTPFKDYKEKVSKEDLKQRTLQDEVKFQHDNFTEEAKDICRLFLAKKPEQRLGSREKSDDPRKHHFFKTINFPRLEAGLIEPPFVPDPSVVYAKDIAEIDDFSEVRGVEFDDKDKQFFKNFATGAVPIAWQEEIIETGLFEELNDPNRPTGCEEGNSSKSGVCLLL
- measurement-description: KINOMEscan competition binding
- reported-conditions: compound 1.0 µM
Write the value in % as a bare number.

Use these answered entries as a reference point.
[[record]]
chemical_string = "Cc1cc(NC(=O)c2cccc(NC(=O)/C=C/CN(C)C)c2)ccc1Nc1nccc(-c2cccnc2)n1"
result = 72

[[record]]
chemical_string = "CN(C)C/C=C/C(=O)Nc1cccc(C(=O)Nc2ccc(Nc3nccc(-c4c(-c5ccccc5)nn5ccccc45)n3)cc2)c1"
result = 86

[[record]]
chemical_string = "CN(C)C/C=C/C(=O)Nc1cccc(C(=O)Nc2ccc(Nc3nccc(-c4cccnc4)n3)cc2)c1"
result = 86


Here is another compound to look at.
Q: Field request: kinase still bound, per cent of control | item: CN(C)C/C=C/C(=O)Nc1cccc(C(=O)Nc2ccc(Nc3nccc(/C(C#N)=C4\Nc5ccccc5S4)n3)cc2)c1
Result: 81

----------
- target-system: UniProt O15197
- Sequence (O15197 whole entry, looked up): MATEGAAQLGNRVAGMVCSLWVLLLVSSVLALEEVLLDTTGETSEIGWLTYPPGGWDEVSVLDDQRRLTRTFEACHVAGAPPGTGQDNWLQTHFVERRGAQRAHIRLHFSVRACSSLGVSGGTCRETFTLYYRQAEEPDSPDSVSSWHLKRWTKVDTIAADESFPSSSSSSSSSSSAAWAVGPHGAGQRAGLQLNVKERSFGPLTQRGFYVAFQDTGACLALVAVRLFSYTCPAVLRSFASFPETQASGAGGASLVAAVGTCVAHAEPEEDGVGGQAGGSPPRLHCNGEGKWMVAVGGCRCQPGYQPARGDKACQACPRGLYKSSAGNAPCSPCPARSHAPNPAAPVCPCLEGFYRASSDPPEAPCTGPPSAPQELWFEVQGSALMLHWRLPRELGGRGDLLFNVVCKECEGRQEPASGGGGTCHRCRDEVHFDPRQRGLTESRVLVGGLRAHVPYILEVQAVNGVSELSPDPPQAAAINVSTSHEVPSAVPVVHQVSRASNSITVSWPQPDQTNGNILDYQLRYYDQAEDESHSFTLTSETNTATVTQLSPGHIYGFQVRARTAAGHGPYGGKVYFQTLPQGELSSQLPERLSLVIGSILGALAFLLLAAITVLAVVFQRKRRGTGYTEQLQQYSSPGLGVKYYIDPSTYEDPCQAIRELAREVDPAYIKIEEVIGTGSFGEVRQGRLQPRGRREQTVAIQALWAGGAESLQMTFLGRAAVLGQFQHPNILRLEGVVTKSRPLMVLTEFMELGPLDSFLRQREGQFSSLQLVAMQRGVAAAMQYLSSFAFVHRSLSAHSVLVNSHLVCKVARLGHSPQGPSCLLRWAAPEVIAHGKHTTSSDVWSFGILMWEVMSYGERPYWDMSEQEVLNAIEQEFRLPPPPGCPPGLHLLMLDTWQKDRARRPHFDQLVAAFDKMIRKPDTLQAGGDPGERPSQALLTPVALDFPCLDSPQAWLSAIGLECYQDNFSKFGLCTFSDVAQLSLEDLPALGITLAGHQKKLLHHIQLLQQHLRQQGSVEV
- measurement-description: KINOMEscan competition binding
- reported-conditions: compound 1.0 µM
measured-endpoint: kinase still bound, per cent of control (%)
Write the value in % as a bare number.

Use these answered entries as a reference point.
[[record]]
chemical_string = "Cc1cc(NC(=O)c2cccc(NC(=O)/C=C/CN(C)C)c2)ccc1Nc1nccc(-c2cccnc2)n1"
result = 71

[[record]]
chemical_string = "CN(C)C/C=C/C(=O)Nc1cccc(C(=O)Nc2ccc(Nc3nccc(-c4cccnc4)n3)cc2)c1"
result = 18

[[record]]
chemical_string = "CN(C)C/C=C/C(=O)Nc1cccc(C(=O)Nc2ccc(Nc3nccc(-c4c(-c5ccccc5)nn5ccccc45)n3)cc2)c1"
result = 9.4


Here is another compound to look at.
Q: Field request: kinase still bound, per cent of control | item: CN(C)C/C=C/C(=O)Nc1cccc(C(=O)Nc2ccc(Nc3nccc(/C(C#N)=C4\Nc5ccccc5S4)n3)cc2)c1
Result: 49

----------
Some molecules, each annotated with its measured kinase still bound, per cent of control.
- target-system: UniProt P46734
- Sequence (P46734 whole entry, looked up): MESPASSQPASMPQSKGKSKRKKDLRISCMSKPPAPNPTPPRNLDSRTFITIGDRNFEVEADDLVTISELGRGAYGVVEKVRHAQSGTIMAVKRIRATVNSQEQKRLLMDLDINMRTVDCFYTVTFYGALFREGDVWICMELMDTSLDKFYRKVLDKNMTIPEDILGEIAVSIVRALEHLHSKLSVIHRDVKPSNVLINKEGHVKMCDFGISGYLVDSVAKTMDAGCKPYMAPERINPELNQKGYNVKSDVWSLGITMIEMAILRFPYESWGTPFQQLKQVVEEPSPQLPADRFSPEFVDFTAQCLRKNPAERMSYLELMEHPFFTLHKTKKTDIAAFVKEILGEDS
- measurement-description: KINOMEscan competition binding
- reported-conditions: compound 1.0 µM
Write the value in % as a bare number.

[[record]]
chemical_string = "CN(C)C/C=C/C(=O)Nc1cccc(C(=O)Nc2ccc(Nc3nccc(-c4cccnc4)n3)cc2)c1"
result = 41


Q: Field request: kinase still bound, per cent of control | item: CN(C)C/C=C/C(=O)Nc1cccc(C(=O)Nc2ccc(Nc3nccc(/C(C#N)=C4\Nc5ccccc5S4)n3)cc2)c1
Result: 88

Q: Cc1cc(NC(=O)c2cccc(NC(=O)/C=C/CN(C)C)c2)ccc1Nc1nccc(-c2cccnc2)n1 ?
Result: 95

Q: CN(C)C/C=C/C(=O)Nc1cccc(C(=O)Nc2ccc(Nc3nccc(-c4c(-c5ccccc5)nn5ccccc45)n3)cc2)c1 ?
Result: 58

----------
- target-system: FYN (human)
- measurement-description: KINOMEscan competition binding
- reported-conditions: compound 1.0 µM
measured-endpoint: kinase still bound, per cent of control (%)
Write the value in % as a bare number.

Use these answered entries as a reference point.
[[record]]
chemical_string = "CN(C)C/C=C/C(=O)Nc1cccc(C(=O)Nc2ccc(Nc3nccc(/C(C#N)=C4\\Nc5ccccc5S4)n3)cc2)c1"
target_system = "FYN (human)"
result = 95

[[record]]
chemical_string = "Cc1cc(NC(=O)c2cccc(NC(=O)/C=C/CN(C)C)c2)ccc1Nc1nccc(-c2cccnc2)n1"
target_system = "FYN (human)"
result = 78

[[record]]
chemical_string = "CN(C)C/C=C/C(=O)Nc1cccc(C(=O)Nc2ccc(Nc3nccc(-c4c(-c5ccccc5)nn5ccccc45)n3)cc2)c1"
target_system = "FYN (human)"
result = 49


Here is another compound to look at.
Q: Field request: kinase still bound, per cent of control | item: CN(C)C/C=C/C(=O)Nc1cccc(C(=O)Nc2ccc(Nc3nccc(-c4cccnc4)n3)cc2)c1
Result: 90

----------
Some compounds, each annotated with its measured kinase still bound, per cent of control.
- target-system: CASK (human)
- measurement-description: KINOMEscan competition binding
- reported-conditions: compound 1.0 µM
Write the value in % as a bare number.

Use these answered entries as a reference point.
[[record]]
chemical_string = "Cc1cc(NC(=O)c2cccc(NC(=O)/C=C/CN(C)C)c2)ccc1Nc1nccc(-c2cccnc2)n1"
result = 100

[[record]]
chemical_string = "CN(C)C/C=C/C(=O)Nc1cccc(C(=O)Nc2ccc(Nc3nccc(-c4cccnc4)n3)cc2)c1"
result = 100

[[record]]
chemical_string = "CN(C)C/C=C/C(=O)Nc1cccc(C(=O)Nc2ccc(Nc3nccc(/C(C#N)=C4\\Nc5ccccc5S4)n3)cc2)c1"
result = 100


Q: Field request: kinase still bound, per cent of control | item: CN(C)C/C=C/C(=O)Nc1cccc(C(=O)Nc2ccc(Nc3nccc(-c4c(-c5ccccc5)nn5ccccc45)n3)cc2)c1
Result: 52

----------
- target-system: MAPKAPK2 (human)
- measurement-description: KINOMEscan competition binding
- reported-conditions: compound 1.0 µM
Some molecules, each annotated with its measured kinase still bound, per cent of control.
Write the value in % as a bare number.

Use these answered entries as a reference point.
[[record]]
chemical_string = "CN(C)C/C=C/C(=O)Nc1cccc(C(=O)Nc2ccc(Nc3nccc(-c4cccnc4)n3)cc2)c1"
measured_endpoint = "kinase still bound, per cent of control"
unit_abbreviation = "%"
result = 100

[[record]]
chemical_string = "CN(C)C/C=C/C(=O)Nc1cccc(C(=O)Nc2ccc(Nc3nccc(/C(C#N)=C4\\Nc5ccccc5S4)n3)cc2)c1"
measured_endpoint = "kinase still bound, per cent of control"
unit_abbreviation = "%"
result = 92

[[record]]
chemical_string = "CN(C)C/C=C/C(=O)Nc1cccc(C(=O)Nc2ccc(Nc3nccc(-c4c(-c5ccccc5)nn5ccccc45)n3)cc2)c1"
measured_endpoint = "kinase still bound, per cent of control"
unit_abbreviation = "%"
result = 84


Here is another molecule to look at.
Q: Field request: kinase still bound, per cent of control | item: Cc1cc(NC(=O)c2cccc(NC(=O)/C=C/CN(C)C)c2)ccc1Nc1nccc(-c2cccnc2)n1
Result: 100

----------
- target-system: TNNI3K (human) (UniProt Q59H18)
- Sequence (Q59H18 whole entry, looked up): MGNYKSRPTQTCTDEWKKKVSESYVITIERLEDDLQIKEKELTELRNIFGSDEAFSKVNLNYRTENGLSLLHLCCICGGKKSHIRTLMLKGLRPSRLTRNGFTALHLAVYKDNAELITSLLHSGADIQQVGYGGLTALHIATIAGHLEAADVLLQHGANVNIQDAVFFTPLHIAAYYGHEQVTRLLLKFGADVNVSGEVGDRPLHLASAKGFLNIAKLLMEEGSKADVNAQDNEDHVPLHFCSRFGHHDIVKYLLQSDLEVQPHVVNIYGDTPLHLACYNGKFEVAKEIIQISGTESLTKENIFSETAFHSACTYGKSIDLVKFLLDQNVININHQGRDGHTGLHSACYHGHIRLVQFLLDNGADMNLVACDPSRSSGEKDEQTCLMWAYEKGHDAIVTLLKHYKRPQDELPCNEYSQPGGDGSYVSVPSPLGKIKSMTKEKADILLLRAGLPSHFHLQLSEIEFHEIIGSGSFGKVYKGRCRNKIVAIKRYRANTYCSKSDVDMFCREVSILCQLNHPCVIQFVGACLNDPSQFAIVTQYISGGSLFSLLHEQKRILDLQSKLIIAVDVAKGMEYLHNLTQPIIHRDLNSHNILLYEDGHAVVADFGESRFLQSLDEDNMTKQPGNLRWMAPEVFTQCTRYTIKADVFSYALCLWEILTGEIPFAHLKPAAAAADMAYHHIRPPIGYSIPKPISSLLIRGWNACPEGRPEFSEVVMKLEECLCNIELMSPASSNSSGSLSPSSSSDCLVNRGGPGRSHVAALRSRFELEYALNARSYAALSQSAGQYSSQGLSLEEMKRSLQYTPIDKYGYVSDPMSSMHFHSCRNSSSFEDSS
- measurement-description: KINOMEscan competition binding
- reported-conditions: compound 1.0 µM
Some molecules, each annotated with its measured kinase still bound, per cent of control.

Q: Field request: kinase still bound, per cent of control | item: Cc1cc(NC(=O)c2cccc(NC(=O)/C=C/CN(C)C)c2)ccc1Nc1nccc(-c2cccnc2)n1
Result: 100%

Q: CN(C)C/C=C/C(=O)Nc1cccc(C(=O)Nc2ccc(Nc3nccc(-c4cccnc4)n3)cc2)c1 ?
Result: 77%

Q: CN(C)C/C=C/C(=O)Nc1cccc(C(=O)Nc2ccc(Nc3nccc(-c4c(-c5ccccc5)nn5ccccc45)n3)cc2)c1 ?
Result: 100%

Q: CN(C)C/C=C/C(=O)Nc1cccc(C(=O)Nc2ccc(Nc3nccc(/C(C#N)=C4\Nc5ccccc5S4)n3)cc2)c1 ?
Result: 100%

----------
- target-system: MAPK9 (human) (UniProt P45984)
- Sequence (P45984 whole entry, looked up): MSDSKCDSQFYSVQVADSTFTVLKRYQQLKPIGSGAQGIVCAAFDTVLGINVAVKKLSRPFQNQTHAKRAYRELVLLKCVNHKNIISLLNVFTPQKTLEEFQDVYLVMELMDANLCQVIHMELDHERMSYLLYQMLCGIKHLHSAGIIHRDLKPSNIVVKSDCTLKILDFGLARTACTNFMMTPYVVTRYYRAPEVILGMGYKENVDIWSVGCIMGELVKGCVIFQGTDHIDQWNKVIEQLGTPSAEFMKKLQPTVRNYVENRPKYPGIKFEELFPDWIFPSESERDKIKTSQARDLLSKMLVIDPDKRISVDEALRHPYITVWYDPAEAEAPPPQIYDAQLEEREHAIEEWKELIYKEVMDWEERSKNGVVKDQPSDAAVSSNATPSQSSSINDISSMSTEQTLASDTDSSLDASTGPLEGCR
- measurement-description: KINOMEscan competition binding
- reported-conditions: compound 1.0 µM
Some compounds, each annotated with its measured kinase still bound, per cent of control.
Write the value in % as a bare number.

Use these answered entries as a reference point.
[[record]]
chemical_string = "CN(C)C/C=C/C(=O)Nc1cccc(C(=O)Nc2ccc(Nc3nccc(-c4cccnc4)n3)cc2)c1"
result = 0

[[record]]
chemical_string = "Cc1cc(NC(=O)c2cccc(NC(=O)/C=C/CN(C)C)c2)ccc1Nc1nccc(-c2cccnc2)n1"
result = 0

[[record]]
chemical_string = "CN(C)C/C=C/C(=O)Nc1cccc(C(=O)Nc2ccc(Nc3nccc(-c4c(-c5ccccc5)nn5ccccc45)n3)cc2)c1"
result = 0


Q: Field request: kinase still bound, per cent of control | item: CN(C)C/C=C/C(=O)Nc1cccc(C(=O)Nc2ccc(Nc3nccc(/C(C#N)=C4\Nc5ccccc5S4)n3)cc2)c1
Result: 0.05
